molecular target: PRMT5 (Homo sapiens, UniProt O14744); construct: purchased Viva (custom protein); test: PRMT5 biochemical IC50 assay with MTA as cofactor; conditions: PRMT5, MTA as cofactor; read-out: MTA IC50
Sequence (O14744 whole entry): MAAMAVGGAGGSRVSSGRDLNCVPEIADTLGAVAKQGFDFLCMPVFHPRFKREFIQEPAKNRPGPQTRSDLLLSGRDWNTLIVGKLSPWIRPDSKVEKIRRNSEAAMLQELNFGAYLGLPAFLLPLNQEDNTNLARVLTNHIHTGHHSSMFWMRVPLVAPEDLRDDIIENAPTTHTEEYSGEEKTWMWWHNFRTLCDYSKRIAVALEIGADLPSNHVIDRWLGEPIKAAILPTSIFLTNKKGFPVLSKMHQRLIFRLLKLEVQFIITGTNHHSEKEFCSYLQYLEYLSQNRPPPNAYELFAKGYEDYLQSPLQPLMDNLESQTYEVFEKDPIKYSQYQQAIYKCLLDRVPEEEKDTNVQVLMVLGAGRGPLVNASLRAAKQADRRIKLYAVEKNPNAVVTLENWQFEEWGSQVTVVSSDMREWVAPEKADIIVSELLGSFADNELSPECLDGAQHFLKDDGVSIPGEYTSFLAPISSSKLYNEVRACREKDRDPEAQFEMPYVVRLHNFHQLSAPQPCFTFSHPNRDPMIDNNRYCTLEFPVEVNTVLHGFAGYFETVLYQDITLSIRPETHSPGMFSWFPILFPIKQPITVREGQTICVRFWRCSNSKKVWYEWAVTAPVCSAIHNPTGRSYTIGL
Sequence (Q9BQA1 whole entry partner): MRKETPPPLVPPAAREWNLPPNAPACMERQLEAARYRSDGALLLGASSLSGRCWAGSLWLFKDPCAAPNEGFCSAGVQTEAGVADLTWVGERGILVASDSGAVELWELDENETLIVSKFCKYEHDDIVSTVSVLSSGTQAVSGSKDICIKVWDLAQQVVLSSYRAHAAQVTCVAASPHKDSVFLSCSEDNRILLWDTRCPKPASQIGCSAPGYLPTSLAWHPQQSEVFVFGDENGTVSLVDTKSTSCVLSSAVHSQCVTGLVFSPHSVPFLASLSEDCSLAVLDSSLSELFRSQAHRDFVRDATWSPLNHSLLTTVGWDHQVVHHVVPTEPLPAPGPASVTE
ATTRIBUTE MEASURED: IC50

1. NC(=O)c1cncc(NC(=O)C(=O)N2CCCCC2c2cccs2)c1 (centres unmarked) [Compound 120] :: < 50 nM
2. C[C@@H]1CC[C@@H](c2ccc(Cl)c(F)c2)N(C(=O)C(=O)Nc2cncc(C(N)=O)c2)C1 (racemic) [Compound 327] :: 50 to 500 nM
3. Cc1cncc(NC(=O)C(=O)N2C[C@H](C)CC[C@H]2c2ccc(N)cc2)c1 (single isomer, unassigned) [Compound 67] :: 50 to 500 nM
4. CCc1cc(NC(=O)C(=O)N2C[C@@H](C)CC[C@@H]2c2ccc3cn(C4CCN(C)CC4)nc3c2)cnc1N (racemic) [Compound 1096] :: < 50 nM
5. CC1Cc2cc([C@@H]3CC[C@@H](C)CN3C(=O)C(=O)Nc3cncc(C(N)=O)c3)ccc2O1 (mixture of isomers) [Compound 151] :: < 50 nM
6. C[C@@H]1CC[C@@H](c2ccc(Cn3ccnc3)cc2)N(C(=O)C(=O)Nc2cncc(C(N)=O)c2)C1 (racemic) [Compound 238] :: < 50 nM
7. Cc1cc(NC(=O)C(=O)N2C[C@@H](C)CC[C@@H]2[C@H]2CC[C@@H](O)CC2)cnc1N (single isomer, unassigned) [Compound 423] :: > 500 nM
8. Cc1cc(NC(=O)C(=O)N2C[C@H](C)CC[C@H]2c2ccc(S(C)(=O)=O)cc2)cnc1N (racemic) [Compound 643] :: 50 to 500 nM

* * *

molecular target: PRMT5 (Homo sapiens, UniProt O14744); construct: purchased Viva (custom protein); experiment: PRMT5 biochemical IC50 assay with MTA as cofactor; details: PRMT5, MTA as cofactor; read-out: MTA IC50
Entries and their IC50
ATTRIBUTE MEASURED: IC50

1. C[C@@H]1CC[C@@H](c2ccc3c(cnn3CCN(C)C)c2)N(C(=O)C(=O)Nc2cnc(N)c(C3CC3)c2)C1 (single isomer, unassigned) [Compound 1249] :: < 50 nM
2. C[C@@H]1[C@@H](C)CC[C@H](c2ccccc2)N1C(=O)C(=O)Nc1cncc(C(N)=O)c1 (single isomer, unassigned) [Compound 483] :: > 500 nM
3. Cc1cc(NC(=O)C(=O)N2CC(C)CCC2C2CNC(=O)C2)cnc1N (stereo not drawn) [Compound 210] :: 50 to 500 nM
4. C[C@H]1CC[C@H](c2ccc3[nH]ncc3c2)N(C(=O)C(=O)Nc2cnc(N)c(C3CC3)c2)C1 (single isomer, unassigned) [Compound 1251] :: < 50 nM
5. CCc1cc(NC(=O)C(=O)N2C[C@@H](C)CC[C@@H]2c2ccc3sc([C@H]4C[C@@H]5CN(C)C[C@@H]5C4)nc3c2)cnc1N [Compound 1338] :: < 50 nM
6. COc1ncc(NC(=O)C(=O)N2C[C@@H](C)CC[C@@H]2c2ccc(NC(C)=O)cc2)cc1C(N)=O (single isomer, unassigned) [Compound 761] :: > 500 nM
7. Cc1cc(NC(=O)C(=O)N2C[C@H](C)CC[C@H]2c2cc3[nH]ncc3s2)cnc1N (racemic) [Compound 743] :: 50 to 500 nM
8. CCc1cc(NC(=O)C(=O)N2C[C@@H](C)CC[C@@H]2c2ccc3sc(-c4cccnc4)nc3c2)cnc1N [Compound 1200] :: < 50 nM
9. C[C@@H]1CC[C@@H](c2ccc(O)nc2)N(C(=O)C(=O)Nc2cncc(C(N)=O)c2)C1 (single isomer, unassigned) [Compound 351] :: > 500 nM
10. O=C(Nc1cncc(CO)c1)C(=O)N1CCCCC1c1ccccc1 (stereo not drawn) [Compound 136] :: > 500 nM
11. C[C@@H]1CC[C@@H](c2ccc3ccoc3c2)N(C(=O)C(=O)Nc2cncc(C(N)=O)c2)C1 (racemic) [Compound 241] :: < 50 nM
12. COc1ncc(NC(=O)C(=O)N2C[C@@H](C)CC[C@@H]2c2ccc3nn([C@H]4CCN(C)C4)cc3c2)cc1C(N)=O (racemic) [Compound 1318] :: < 50 nM
13. Cc1cc(NC(=O)C(=O)N2C[C@H](C(N)=O)CC[C@H]2c2ccccc2)cnc1N (racemic) [Compound 315] :: 50 to 500 nM
14. Cc1cc(NC(=O)C(=O)N2C[C@H]3CC[C@H](C3)[C@@H]2c2ccccc2)cnc1N (single isomer, unassigned) [Compound 63] :: > 500 nM
15. Cc1cc(NC(=O)C(=O)N2C[C@H](C)CC[C@H]2[C@H]2CC3(C[C@H](C(N)=O)C3)C2)cnc1N (mixture of isomers) [Compound 812] :: 50 to 500 nM
16. C[C@@H]1C[C@H](C)[C@@H](c2ccccc2)N(C(=O)C(=O)Nc2cncc(C(N)=O)c2)C1 (single isomer, unassigned) [Compound 311] :: < 50 nM
17. COc1ncc(NC(=O)C(=O)N2C[C@H](C)CC[C@H]2c2cccs2)cc1C(N)=O (single isomer, unassigned) [Compound 310] :: > 500 nM
18. Cc1cc(NC(=O)C(=O)N2C[C@@H](C)CC[C@@H]2c2ccc3c(cnn3C)c2)cnc1N (single isomer, unassigned) [Compound 1037] :: > 500 nM

* * *

Entries and their IC50
target: PRMT5 (Homo sapiens); construct: purchased Viva (custom protein); test: PRMT5 biochemical IC50 assay with MTA as cofactor; conditions: PRMT5, MTA as cofactor; read-out: MTA IC50
ATTRIBUTE MEASURED: IC50

1) COc1ncc(NC(=O)C(=O)N2C[C@H](C)CC[C@H]2c2ccc3nn(C)cc3c2)cc1C(N)=O (single isomer, unassigned) [Compound 1051] :: > 500 nM
2) CNc1cccc([C@H]2CC[C@H](C)CN2C(=O)C(=O)Nc2cnc(N)c(C)c2)c1 (single isomer, unassigned) [Compound 450] :: > 500 nM
3) COc1ncc(NC(=O)C(=O)N2C[C@@H](C)CC[C@@H]2c2cnc3c(c2)CCC(=O)N3)cc1C(N)=O (racemic) [Compound 891] :: 50 to 500 nM
4) CC(=O)Nc1cccc([C@@H]2CC[C@@H](C)CN2C(=O)C(=O)Nc2cncc(C)c2)c1 (racemic) [Compound 110] :: 50 to 500 nM
5) CCc1cc(NC(=O)C(=O)N2C[C@@H](C)CC[C@@H]2c2ccc3sc(C45CC(CN(C)C4)C5)nc3c2)cnc1N [Compound 1212] :: < 50 nM
6) CCc1ccc([C@@H]2CC[C@@H](C)CN2C(=O)C(=O)Nc2cnc(N)c(C)c2)cn1 (single isomer, unassigned) [Compound 1013] :: < 50 nM

* * *

target: PRMT5 (Homo sapiens, UniProt O14744); construct: purchased Viva (custom protein); assay: PRMT5 biochemical IC50 assay with no cofactor; details: PRMT5, no cofactor; read-out: No Cofactor/ rel IC50
Entries and their IC50
ATTRIBUTE MEASURED: IC50

1. Cc1cc(NC(=O)C(=O)N2C[C@H]3CC[C@H](C3)[C@@H]2c2ccccc2)cnc1N (single isomer, unassigned) [Compound 63] :: > 500 nM
2. COc1ncc(NC(=O)C(=O)N2C[C@@H](C)CC[C@@H]2c2ccc3sc([C@H]4CCCN(C)C4)nc3c2)cc1C(N)=O [Compound 1359] :: < 50 nM
3. Cc1cc(NC(=O)C(=O)N2C[C@H](C)[C@H](OC(C)C)C[C@H]2c2ccccc2)cnc1N (single isomer, unassigned) [Compound 1351] :: < 50 nM
4. Cc1cc(NC(=O)C(=O)N2C[C@@H](C)CC[C@@H]2C2CCCCC2)cnc1N (single isomer, unassigned) [Compound 152] :: > 500 nM
5. CC(=O)N1CCC(c2cccc(C3CCCCN3C(=O)C(=O)Nc3cncc(C)c3)c2)CC1 (single isomer, unassigned) [Compound 78] :: > 500 nM
6. COc1ncc(NC(=O)C(=O)N2CCCCC2c2ccccc2)cc1C(N)=O (stereo not shown) [Compound 138] :: > 500 nM
7. CCc1cc(NC(=O)C(=O)N2CC(C)CCC2c2ccc3sc(C4CCN(C)CC4C)nc3c2)cnc1N (racemic) [Compound 1373] :: < 50 nM

* * *

Entries and their IC50
molecular target: PRMT5 (Homo sapiens, UniProt O14744); construct: purchased Viva (custom protein); experiment: PRMT5 biochemical IC50 assay with SAM as cofactor; settings: PRMT5, SAM as cofactor; read-out: SAM IC50
ATTRIBUTE MEASURED: IC50

1) C[C@@H]1CC[C@@H](c2ccccc2C#N)N(C(=O)C(=O)Nc2cncc(C(N)=O)c2)C1 (racemic) :: > 500 nM
2) C[C@@H]1CC[C@@H](c2ccc3ccoc3c2)N(C(=O)C(=O)Nc2cncc(C(N)=O)c2)C1 (racemic) :: 50 to 500 nM
3) Cc1cc([C@H]2CC[C@H](C)CN2C(=O)C(=O)Nc2cncc(C(N)=O)c2)ccn1 (single isomer, unassigned) :: 50 to 500 nM
4) Cc1cncc(NC(=O)C(=O)N2C[C@H](C)CC[C@H]2c2ccc(O)cc2)c1 (racemic) :: 50 to 500 nM
